Test system: P31-FUJ (Acute Myeloid Leukemia)
methodNotes: combination Emax (second highest fraction inhibited in the dose matrix, 72 h); higher = more inhibition; extreme values may be limits of the assay
Mark no for combination Emax values under 0.6, and yes for everything at or above.

Task: Please tell me: is the molecule O=C(c1cc(Cc2n[nH]c(=O)c3ccccc23)ccc1F)N1CCN(C(=O)C2CC2)CC1 [Olaparib] + CN(CC[C@H](CSC1=CC=CC=C1)NC2=C(C=C(C=C2)S(=O)(=O)NC(=O)C3=CC=C(C=C3)N4CCC(CC4)[C@H](C5=CC=CC=C5C6=CC=C(C=C6)Cl)O)S(=O)(=O)C(F)(F)F)CCO [AZD4320] (first compound max 10 µM, 7x7, partner max 1 µM) at or over 0.6 in terms of combination Emax?
Result: no

Task: Entry to check: CC1(C)CCC(CN2CCN(c3ccc(C(=O)NS(=O)(=O)c4ccc(NCC5CCOCC5)c([N+](=O)[O-])c4)c(Oc4cnc5[nH]ccc5c4)c3)CC2)=C(c2ccc(Cl)cc2)C1 [Venetoclax] + Cc1cc2ncnn2cc1Nc1ncc2c(n1)n(C1CCOCC1)c(=O)n2C [AZD7648] (first compound max 1 µM, 7x7, partner max 10 µM)
Result: yes

Task: Entry to check: Cn1cnc2c(F)c(Nc3ccc(Br)cc3Cl)c(C(=O)NOCCO)cc21 [Selumetinib] + CC(C)n1c(=O)n(C)c2cnc3cc(F)c(-c4ccc(OCCCN5CCCCC5)nc4)cc3c21 [AZD1390] (first compound max 10 µM, 7x7, partner max 0.3 µM)
Result: no

Task: Entry to check: Cc1c2c(nn1C)CSCc1cc(n(C)n1)CSc1cc(c3ccccc3c1)OCCCc1c(C(=O)O)n(C)c3c-2c(Cl)ccc13 [AZD5991] + CC1(C)CCC(CN2CCN(c3ccc(C(=O)NS(=O)(=O)c4ccc(NCC5CCOCC5)c([N+](=O)[O-])c4)c(Oc4cnc5[nH]ccc5c4)c3)CC2)=C(c2ccc(Cl)cc2)C1 [Venetoclax] (first compound max 1 µM, 7x7, partner max 1 µM)
Result: yes

Task: Entry to check: Cc1cc2ncnn2cc1Nc1ncc2c(n1)n(C1CCOCC1)c(=O)n2C [AZD7648] + CN(C)CCCOc1ccc(-c2ccc3ncc4c(c3c2)n(C2CCOCC2)c(=O)n4C)cn1 [AZD0156] (first compound max 10 µM, 7x7, partner max 1 µM)
Result: no
